Attribution: ChEMBL document CHEMBL3994666

- target.desc: Proteasome Macropain subunit MB1 (Homo sapiens)
- Sequence (P28074 whole entry): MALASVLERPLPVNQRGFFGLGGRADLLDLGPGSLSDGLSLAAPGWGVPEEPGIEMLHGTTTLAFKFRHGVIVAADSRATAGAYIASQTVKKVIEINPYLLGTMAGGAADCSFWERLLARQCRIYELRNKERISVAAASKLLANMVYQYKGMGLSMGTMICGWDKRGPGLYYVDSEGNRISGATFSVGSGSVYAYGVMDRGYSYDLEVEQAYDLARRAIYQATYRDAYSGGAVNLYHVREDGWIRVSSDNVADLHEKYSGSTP
- method.description: Inhibition of proteasome beta5 in human MOLT4 cell lysate after 1 hr by ELISA
Measured IC50 accompanies every entry in the list below.
Numbers only here, please. The scale is µM.

IC50 reading for C[C@H](NC(=O)c1cccc(=O)[nH]1)C(=O)N[C@@H](Cc1ccccc1)C(=O)[C@@]1(C)CO1 : 42.5

IC50 reading for COc1ccc(C[C@H](NC(=O)c2cccc(=O)[nH]2)C(=O)N[C@@H](Cc2ccccc2)C(=O)[C@@]2(C)CO2)cc1 : 18.2

IC50 reading for C[C@]1(C(=O)[C@H](Cc2ccccc2)NC(=O)[C@H](CO)NC(=O)c2cccc(=O)[nH]2)CO1 : 6.89
